# assay-system: T1, LHD298B
# T1 construct: de novo designed protomer; BLI: one protomer of the pair was Avi-tagged, biotinylated and immobilised; also called LHD298 protomer B; source: E. coli BL21 LEMO, purified (Ni-NTA, SEC)
# assay-name: BLI; biotinylated protomer on streptavidin biosensors, designed partner in solution; 25 °C; 10 mM HEPES pH 7.4, 150 mM NaCl, 3 mM EDTA, 0.05% Surfactant P20, 1 mg/ml BSA; steady-state fit, 1:1 model
# condition: both partners purified
observed-property: Kd (nM)
Value expressed in nM; do not type the unit.

Consider LHD298A (designed binder) GRQEKVLKSIEETVRKMGVTMETHRSGNTVKVVIKGLHESQQEQLHKDVEETVQKEGVFVLVSHHGDTVTIQVYE . Its measured Kd is 16
